Taken from paper PMC11790914.

assayTarget: MAPK1 (Homo sapiens)
Construct: made in house
Sequence (P28482 whole entry, species assumed): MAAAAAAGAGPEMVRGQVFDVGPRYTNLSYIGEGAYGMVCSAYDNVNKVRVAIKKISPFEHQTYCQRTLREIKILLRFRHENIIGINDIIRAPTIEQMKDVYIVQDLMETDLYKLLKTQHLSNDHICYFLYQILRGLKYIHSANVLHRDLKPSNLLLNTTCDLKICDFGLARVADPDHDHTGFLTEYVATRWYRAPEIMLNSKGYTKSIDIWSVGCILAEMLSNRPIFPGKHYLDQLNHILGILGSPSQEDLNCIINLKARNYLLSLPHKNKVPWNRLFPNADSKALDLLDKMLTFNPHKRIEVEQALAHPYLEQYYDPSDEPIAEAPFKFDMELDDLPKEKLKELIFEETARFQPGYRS
assay: Liability panel screening by DSF: MAPK1
Assay type: binding
conditionsUsed: read-out: Mean ΔTM MAPK1

| compound | assayTarget | ΔTm at 20 µM [°C] |
| --- | --- | --- |
| CC(=O)Nc1ccc(OC[C@](C)(O)C(=O)Nc2ccc([N+](=O)[O-])c(C(F)(F)F)c2)cc1 | MAPK1 (Homo sapiens) | -0.26 |
| CC[C@@H]1Cc2cc(O)ccc2C2=C1c1ccc(O)cc1C[C@H]2CC [(R,R)-THC] | MAPK1 (Homo sapiens) | 0.61 |
| O=S(=O)(Cc1ccccc1)Nc1ccc(-c2ccc3c(cnn3-c3ccc(F)cc3)c2)c(C(F)(F)F)c1 | MAPK1 (Homo sapiens) | -2.07 |
| C[C@]1(O)CC[C@H]2[C@@H]3CCC4=CC(=O)CCC4=C3C=C[C@@]21C | MAPK1 (Homo sapiens) | -0.02 |

====

assayTarget: BRPF1 (Homo sapiens)
Construct: This panel comprised ten highly ligandable kinases and bromodomains; made in house
assay: Liability panel screening by DSF: BRPF1
Type: binding
conditionsUsed: read-out: Mean ΔTM BRPF1
Rule: measured ΔTm at 20 µM below -1 °C gets yes; anything equal to or greater than -1 °C gets no.

| molecule | answerLabel |
| --- | --- |
| CC[C@@H]1Cc2cc(O)ccc2C2=C1c1ccc(O)cc1C[C@H]2CC [(R,R)-THC] | no |
| C[C@]1(O)CC[C@H]2[C@@H]3CCC4=CC(=O)CCC4=C3C=C[C@@]21C | yes |
| O=S(=O)(Cc1ccccc1)Nc1ccc(-c2ccc3c(cnn3-c3ccc(F)cc3)c2)c(C(F)(F)F)c1 | no |
| CC(=O)Nc1ccc(OC[C@](C)(O)C(=O)Nc2ccc([N+](=O)[O-])c(C(F)(F)F)c2)cc1 | no |
| CCCc1c(-c2ccc(O)cc2)nn(-c2ccc(O)cc2)c1-c1ccc(O)cc1 | yes |

====

assayTarget: AURKA (Homo sapiens, UniProt O14965)
Construct: made in house
Sequence (O14965 whole entry, species assumed): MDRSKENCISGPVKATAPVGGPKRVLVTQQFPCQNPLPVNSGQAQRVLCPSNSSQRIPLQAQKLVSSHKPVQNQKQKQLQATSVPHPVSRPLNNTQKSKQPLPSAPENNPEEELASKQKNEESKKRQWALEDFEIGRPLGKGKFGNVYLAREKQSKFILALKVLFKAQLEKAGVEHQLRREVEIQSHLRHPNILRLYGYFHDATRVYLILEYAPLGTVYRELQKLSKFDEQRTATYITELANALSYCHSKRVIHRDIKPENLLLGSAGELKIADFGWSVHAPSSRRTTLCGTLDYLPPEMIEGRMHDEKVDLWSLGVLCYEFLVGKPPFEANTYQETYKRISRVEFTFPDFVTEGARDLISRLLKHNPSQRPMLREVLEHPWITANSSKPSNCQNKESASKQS
assay: Liability panel screening by DSF: AURKA
Format: binding
conditionsUsed: DSF, 20 µM, n=2; read-out: Mean ΔTM AURKA
The entries below come with measured ΔTm at 20 µM values attached.
quantityKind: ΔTm at 20 µM

| molecule | assayTarget | measuredResult |
| --- | --- | --- |
| C[C@H]1C[C@H]2[C@@H]3CCC4=CC(=O)C=C[C@]4(C)[C@@]3(Cl)[C@@H](O)C[C@]2(C)[C@@]1(O)C(=O)CO [Beclomethasone] | AURKA (Homo sapiens, UniProt O14965) | 0.03 °C |
| CCCC1O[C@@H]2C[C@H]3[C@@H]4CCC5=CC(=O)C=C[C@]5(C)[C@H]4[C@@H](O)C[C@]3(C)[C@]2(C(=O)CO)O1 (stereo partly drawn) [Budesonide] | AURKA (Homo sapiens, UniProt O14965) | -0.16 °C |
| Oc1ccc(-c2c(-c3ccccc3)nn3c(C(F)(F)F)cc(C(F)(F)F)nc23)cc1 [PHTPP] | AURKA (Homo sapiens, UniProt O14965) | -0.53 °C |
| CC(=O)O[C@]1(C(C)=O)CC[C@H]2[C@@H]3C=C(Cl)C4=CC(=O)[C@@H]5C[C@@H]5[C@]4(C)[C@H]3CC[C@@]21C [Cyproterone acetate] | AURKA (Homo sapiens, UniProt O14965) | -1.49 °C |
| CC/C(=C(/c1ccc(/C=C/C(=O)O)cc1)c1ccc2[nH]ncc2c1)c1ccc(F)cc1Cl [ARN810] | AURKA (Homo sapiens, UniProt O14965) | 1.69 °C |
| C[C@]12CCC(=O)C=C1CC[C@@H]1[C@@H]2[C@@H](O)C[C@]2(C=O)[C@@H](C(=O)CO)CC[C@@H]12 [Aldosterone] | AURKA (Homo sapiens, UniProt O14965) | 0.1 °C |

====

Tested on: NF-κB activity in HEK293 NF-κB reporter cells
assay: NF-kB activity assay (GFP reporter, ionomycin/PMA)
Type: cell-based
conditionsUsed: 1 µM, 6 h, n=3
Protocol: Fig. 6 Application of the NR3 CG set. After 24 h, cells were incubated with the test compounds solubilized with 0.1% DMSO in the same medium without puromycin. After 4 h incubation, ionomycin (100 ng/mL) and phorbol-12-myristat-13-acetate (PMA, 10 ng/mL) was added, and the cells were imaged for confluence and GFP expression every 90 min. over 24 h using a Tecan SPARK Cyto (Tecan). The number of GFP expressing cells was normalized to confluence in each sample. […]
The entries below come with measured Mean NFκB response values attached.

| compound | Mean NFκB response |
| --- | --- |
| COc1cc(/C=C(\C#N)C(=O)Nc2nnc(C(F)(F)F)s2)ccc1OCc1ccc(C(F)(F)F)cc1C(F)(F)F | 4944.18 GFP+-cells/confluence ∙ 1000 |
| N#Cc1ccc([C@H]2CCCC[C@H]2O)cc1C(F)(F)F | 5028.67 GFP+-cells/confluence ∙ 1000 |
| C[C@]12CCC(=O)C=C1CC[C@@H]1[C@@H]2[C@@H](O)C[C@]2(C=O)[C@@H](C(=O)CO)CC[C@@H]12 | 4651.42 GFP+-cells/confluence ∙ 1000 |
| O=S(=O)(Cc1ccccc1)Nc1ccc(-c2ccc3c(cnn3-c3ccc(F)cc3)c2)c(C(F)(F)F)c1 | 4105.89 GFP+-cells/confluence ∙ 1000 |
| C[C@H]1C[C@H]2[C@@H]3CCC4=CC(=O)C=C[C@]4(C)[C@@]3(Cl)[C@@H](O)C[C@]2(C)[C@@]1(O)C(=O)CO | 3065.61 GFP+-cells/confluence ∙ 1000 |
| C[C@]12CC[C@@H]3c4ccc(O)cc4C[C@@H](CCCCCCCCC[S+]([O-])CCCC(F)(F)C(F)(F)F)[C@H]3[C@@H]1CC[C@@H]2O (stereo partly drawn) | 3642.03 GFP+-cells/confluence ∙ 1000 |
| Cc1c(N2C(=O)C3C(O)CCN3C2=O)ccc(C#N)c1Cl (stereo not drawn) | 4160.27 GFP+-cells/confluence ∙ 1000 |
| COc1ccc2c(c1)OC(C)(C)C(c1ccccc1)C2c1ccc(OCCN2CCCC2)cc1 (stereo not drawn) | 5719.43 GFP+-cells/confluence ∙ 1000 |
| CC(=O)OCC(=O)[C@@]1(O)CC[C@H]2[C@@H]3CCC4=CC(=O)CC[C@]4(C)[C@@]3(F)[C@@H](O)C[C@@]21C [Fludrocortisone acetate] | 5124.39 GFP+-cells/confluence ∙ 1000 |
| N#Cc1ccc(N2N=C3c4ccc(C(=O)O)cc4CC[C@@H]3[C@@H]2C2CCCC2)cc1Cl | 3810.00 GFP+-cells/confluence ∙ 1000 |
| Oc1ccc(-c2c(-c3ccccc3)nn3c(C(F)(F)F)cc(C(F)(F)F)nc23)cc1 | 4822.41 GFP+-cells/confluence ∙ 1000 |
| CCCc1c(-c2ccc(O)cc2)nn(-c2ccc(O)cc2)c1-c1ccc(O)cc1 | 6059.91 GFP+-cells/confluence ∙ 1000 |
| N#CC(Cc1ccc(O)cc1)c1ccc(O)cc1 (stereo not drawn) | 5664.74 GFP+-cells/confluence ∙ 1000 |
| C[C@@H]1Cc2c([nH]c3ccccc23)[C@@H](c2c(F)cc(/C=C/C(=O)O)cc2F)N1CC(C)(C)F | 4897.81 GFP+-cells/confluence ∙ 1000 |
| C[C@]1(O)CC[C@H]2[C@@H]3CCC4=CC(=O)CCC4=C3C=C[C@@]21C | 4781.67 GFP+-cells/confluence ∙ 1000 |

====

assayTarget: GSK3B (Homo sapiens)
Construct: made in house
Sequence (P49841 whole entry, species assumed): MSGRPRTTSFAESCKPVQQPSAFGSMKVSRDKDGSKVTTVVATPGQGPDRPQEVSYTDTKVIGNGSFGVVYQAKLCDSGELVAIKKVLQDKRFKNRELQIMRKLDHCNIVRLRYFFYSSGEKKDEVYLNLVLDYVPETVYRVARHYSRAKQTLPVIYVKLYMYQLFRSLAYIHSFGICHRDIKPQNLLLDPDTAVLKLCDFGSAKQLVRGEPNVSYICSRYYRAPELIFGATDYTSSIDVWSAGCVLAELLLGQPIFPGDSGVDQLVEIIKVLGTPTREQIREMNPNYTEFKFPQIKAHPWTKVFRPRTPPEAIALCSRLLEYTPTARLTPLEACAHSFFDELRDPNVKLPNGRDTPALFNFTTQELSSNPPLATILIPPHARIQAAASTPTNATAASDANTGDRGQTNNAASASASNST
assay: Liability panel screening by DSF: GSK3B
Type: binding
conditionsUsed: read-out: Mean ΔTM GSK3B
The entries below come with measured ΔTm at 20 µM values attached.

| compound | ΔTm at 20 µM (°C) |
| --- | --- |
| CCCc1c(-c2ccc(O)cc2)nn(-c2ccc(O)cc2)c1-c1ccc(O)cc1 | 0.06 |
| O=S(=O)(Cc1ccccc1)Nc1ccc(-c2ccc3c(cnn3-c3ccc(F)cc3)c2)c(C(F)(F)F)c1 | 1.24 |
| CC(=O)Nc1ccc(OC[C@](C)(O)C(=O)Nc2ccc([N+](=O)[O-])c(C(F)(F)F)c2)cc1 | 0.71 |
| CC[C@@H]1Cc2cc(O)ccc2C2=C1c1ccc(O)cc1C[C@H]2CC [(R,R)-THC] | 1.59 |
| C[C@]1(O)CC[C@H]2[C@@H]3CCC4=CC(=O)CCC4=C3C=C[C@@]21C | -0.24 |

====

assayTarget: BRPF1 (Homo sapiens, UniProt P55201)
Construct: This panel comprised ten highly ligandable kinases and bromodomains; made in house
Sequence (P55201 628-732 limits assumed, species assumed): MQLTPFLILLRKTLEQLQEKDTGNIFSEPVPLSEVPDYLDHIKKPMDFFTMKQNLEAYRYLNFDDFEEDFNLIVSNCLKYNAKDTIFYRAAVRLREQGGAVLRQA
assay: Liability panel screening by DSF: BRPF1
Format: binding
conditionsUsed: DSF, 20 µM, n=2; read-out: Mean ΔTM BRPF1
Procedure: Reference ligands are listed in the methods section. In-house produced recombinantly expressed proteins[62] of the liability panel targets were diluted in a buffer containing 10 mM HEPES (pH 7.5) and 500 mM NaCl to a concentration of 2 µM. SYPRO Orange (Invitrogen, Carlsbad, California, USA; #S6650) as a fluorescence probe was added at a 1:1000 dilution to the proteins. […]
quantityKind: ΔTm at 20 µM (°C)

| compound | assayTarget | unitLabel | measuredResult |
| --- | --- | --- | --- |
| N#CC(Cc1ccc(O)cc1)c1ccc(O)cc1 (stereo not drawn) | BRPF1 (Homo sapiens, UniProt P55201) | °C | -1.46 |
| Cc1c(-c2ccc(O)cc2)n(Cc2ccc(OCCN3CCCCCC3)cc2)c2ccc(O)cc12 | BRPF1 (Homo sapiens, UniProt P55201) | °C | -0.07 |
| Cc1c(N2C(=O)C3C(O)CCN3C2=O)ccc(C#N)c1Cl (stereo not drawn) | BRPF1 (Homo sapiens, UniProt P55201) | °C | 0.06 |
| CC(=O)O[C@]1(C(C)=O)CC[C@H]2[C@@H]3C=C(Cl)C4=CC(=O)[C@@H]5C[C@@H]5[C@]4(C)[C@H]3CC[C@@]21C [Cyproterone acetate] | BRPF1 (Homo sapiens, UniProt P55201) | °C | -1.28 |
| C[C@]12CC[C@@H]3c4ccc(O)cc4C[C@@H](CCCCCCCCC[S+]([O-])CCCC(F)(F)C(F)(F)F)[C@H]3[C@@H]1CC[C@@H]2O (stereo partly drawn) | BRPF1 (Homo sapiens, UniProt P55201) | °C | 0 |
| CCC(=O)O[C@]1(C(=O)SCF)[C@H](C)C[C@H]2[C@@H]3C[C@H](F)C4=CC(=O)C=C[C@]4(C)[C@@]3(F)[C@@H](O)C[C@@]21C [Fluticasone propionate] | BRPF1 (Homo sapiens, UniProt P55201) | °C | -0.69 |
| N#Cc1ccc(N2N=C3c4ccc(C(=O)O)cc4CC[C@@H]3[C@@H]2C2CCCC2)cc1Cl | BRPF1 (Homo sapiens, UniProt P55201) | °C | -8.37 |
| Oc1ccc(-c2nc3cc(O)cc(Br)c3o2)cc1 | BRPF1 (Homo sapiens, UniProt P55201) | °C | 2.12 |
| O=C(/C=C/c1ccc(O)cc1)c1ccc(O)cc1O | BRPF1 (Homo sapiens, UniProt P55201) | °C | 0.82 |
| CC/C(=C(\c1ccc(O)cc1)c1ccc(OCCN(C)C)cc1)c1ccccc1 [(Z)-4-Hydroxytamoxifen] | BRPF1 (Homo sapiens, UniProt P55201) | °C | -1.98 |
| CC#C[C@]1(O)CC[C@H]2[C@@H]3CCC4=CC(=O)CCC4=C3[C@@H](c3ccc(N(C)C)cc3)C[C@@]21C | BRPF1 (Homo sapiens, UniProt P55201) | °C | -2.63 |
| COc1ccc2c(c1)OC(C)(C)C(c1ccccc1)C2c1ccc(OCCN2CCCC2)cc1 (stereo not drawn) | BRPF1 (Homo sapiens, UniProt P55201) | °C | -2.59 |
| C#C[C@]1(O)CC[C@H]2[C@@H]3CCc4cc(O)ccc4[C@H]3CC[C@@]21C | BRPF1 (Homo sapiens, UniProt P55201) | °C | 1.32 |
| COc1cc(/C=C(\C#N)C(=O)Nc2nnc(C(F)(F)F)s2)ccc1OCc1ccc(C(F)(F)F)cc1C(F)(F)F | BRPF1 (Homo sapiens, UniProt P55201) | °C | -1.02 |
| COC(=O)[C@@H]1CC2=CC(=O)CC[C@]2(C)[C@@]23O[C@@H]2C[C@@]2(C)[C@@H](CC[C@@]24CCC(=O)O4)[C@H]13 | BRPF1 (Homo sapiens, UniProt P55201) | °C | -1.07 |
